target: FAD-linked sulfhydryl oxidase ALR (Homo sapiens); experiment: ALR-catalysed DTT oxidation blockers – biochemical, H2O2 detection, HRP-luminol luminescence, single point, primary screen (AID 485317); conditions: purified ALR, active compounds read high, concentration not given here
In all, about 290,000 compounds went through this assay and about 11,000 (3.8%) were called active. What follows is part of a selection rich in actives, with near analogues and random picks from the rest.

>  <COMPOUND>
COC(=O)c1ccc(CSc2ccc(S(=O)(=O)N3CCCCC3)cn2)cc1

>  <inhibition / %>
98.5

$$$$
>  <COMPOUND>
Cc1sc2ncnc(N3CCC(C(=O)Nc4nc5ccc(Cl)cc5s4)CC3)c2c1C

>  <inhibition / %>
-1.15

$$$$
>  <COMPOUND>
CC(C)NC(=O)c1ccc(Cl)cc1Cl

>  <inhibition / %>
-6.81

$$$$
>  <COMPOUND>
Cc1ccc(NS(=O)(=O)c2ccc(C(C)C)cc2)cc1S(=O)(=O)N1CCOCC1

>  <inhibition / %>
4.5

$$$$
>  <COMPOUND>
O=S(=O)(c1ccc(SCc2ccccc2)nc1)N1CCCCCC1

>  <inhibition / %>
-0.984

$$$$
>  <COMPOUND>
c1ccc(-c2nnc(SCc3nc4ccccc4[nH]3)o2)cc1

>  <inhibition / %>
-5.4

$$$$
>  <COMPOUND>
CCN(CC)CCCNC(=O)COc1ccc2oc3c(c2c1)CCCC3

>  <inhibition / %>
83.3

$$$$
>  <COMPOUND>
COc1ncnc2c1N=C1CC(C)(C)CC(N)=C1S2

>  <inhibition / %>
99

$$$$
>  <COMPOUND>
Clc1ccccc1SCc1nc2ccccc2[nH]1

>  <inhibition / %>
-0.577

$$$$
>  <COMPOUND>
CCCC(CNC(=O)COC(=O)C1=NNC(=O)CC1)c1ccc(Cl)cc1Cl (stereo unspecified)

>  <inhibition / %>
0.0724

$$$$
>  <COMPOUND>
COC(=O)c1ccc(CNC(=O)c2ccc(S(=O)(=O)N3CCCCCC3)cc2)cc1

>  <inhibition / %>
-5.09

$$$$

----------
target: FAD-linked sulfhydryl oxidase ALR (Homo sapiens); assay: ALR-catalysed DTT oxidation blockers – biochemical, H2O2 detection, HRP-luminol luminescence, single point, primary screen (AID 485317); details: purified ALR, active compounds read high, concentration not given here
In all, about 290,000 compounds went through this assay and about 11,000 (3.8%) were called active. The sample holds actives, similar compounds and a random draw of the others, so the mix is not that of the screen.

>  <MOLECULE>
CCN(CC(=O)Nc1ccccc1OC)C(=O)CC1CC2CCC1C2 (stereo unspecified)

>  <inhibition (%)>
1.64

$$$$
>  <MOLECULE>
COC(=O)c1ccc(C)c(NC(=O)Cn2c(C)csc2=O)c1

>  <inhibition (%)>
-1.89

$$$$
>  <MOLECULE>
CC1CCCCC12NC(=O)N(CC(=O)OCC(=O)NCc1ccc(F)cc1)C2=O (stereo unspecified)

>  <inhibition (%)>
-8.04

$$$$
>  <MOLECULE>
COc1ccc(NCCc2ccccn2)cc1

>  <inhibition (%)>
99.8

$$$$
>  <MOLECULE>
CC1CCCCC12NC(=O)N(CC(=O)Nc1ccc(S(=O)(=O)Nc3ncccn3)cc1)C2=O (stereo unspecified)

>  <inhibition (%)>
91.2

$$$$
>  <MOLECULE>
COc1cc(C(=O)NC2CCN(C)CC2)ccc1Nc1ncc2c(n1)N(C1CCC(O)CC1)CCC(=O)N2C (stereo unspecified)

>  <inhibition (%)>
-1.63

$$$$
>  <MOLECULE>
Cc1c(C)c(C)c(S(=O)(=O)NCCc2ccccn2)c(C)c1C

>  <inhibition (%)>
3.53

$$$$
>  <MOLECULE>
COc1cccc(NC(=S)NCc2ccccn2)c1

>  <inhibition (%)>
-3.74

$$$$
>  <MOLECULE>
COc1ccc(C)cc1NC(=O)CSc1cccc[n+]1[O-]

>  <inhibition (%)>
-22.2

$$$$
>  <MOLECULE>
O=C(CSc1nc2ccccc2c(=O)n1-c1ccccc1F)N1CCOCC1

>  <inhibition (%)>
-2.73

$$$$
>  <MOLECULE>
O=C(OCc1cc(=O)n2ccsc2n1)C1(c2ccc(Cl)cc2)CC1

>  <inhibition (%)>
-1.54

$$$$

----------
inhibition values by entry
biological target: FAD-linked sulfhydryl oxidase ALR (Homo sapiens); assay: ALR-catalysed DTT oxidation blockers – biochemical, H2O2 detection, HRP-luminol luminescence, single point, primary screen (AID 485317); details: purified ALR, active compounds read high, concentration not given here
The whole screen tested about 290,000 compounds, of which about 11,000 (3.8%) were called active. This excerpt belongs to a sample that is enriched for actives.
OUTCOME MEASURE: inhibition

>  <COMPOUND>
CC1(C)CC[C@@]2(C(=O)O)C(C1)C1=CCC3[C@@]4(C)CC[C@H](O)C(C)(C)C4CC[C@@]3(C)[C@]1(C)C[C@H]2O (stereo not given in full)

>  <OUTCOME MEASURE>
inhibition

>  <RESULT>
-9.85% (inactive)

$$$$
>  <COMPOUND>
CC1=NN(C(=O)c2ccccc2Br)C(O)(c2cccnc2)C1 (stereo not given)

>  <OUTCOME MEASURE>
inhibition

>  <RESULT>
-2.8% (inactive)

$$$$
>  <COMPOUND>
COc1ccccc1N1CCN(C(=O)c2c(-c3c(Cl)cccc3Cl)noc2C)CC1

>  <OUTCOME MEASURE>
inhibition

>  <RESULT>
15.3% (inactive)

$$$$
>  <COMPOUND>
O=C(c1c(Cl)cccc1Cl)N1CCN(c2cccc3[nH]ccc23)CC1

>  <OUTCOME MEASURE>
inhibition

>  <RESULT>
98.9% (active)

$$$$
>  <COMPOUND>
Cc1cccc(NC(=O)CN2C(=O)c3ccccc3C2=O)c1C

>  <OUTCOME MEASURE>
inhibition

>  <RESULT>
2.16% (inactive)

$$$$
>  <COMPOUND>
Cc1cccc(C(=O)NNC(=O)c2cccc([N+](=O)[O-])c2)c1

>  <OUTCOME MEASURE>
inhibition

>  <RESULT>
2.77% (inactive)

$$$$
>  <COMPOUND>
CCCCC(CC)CNC(=O)CCCCn1c(=O)[nH]c2ccsc2c1=O (stereo not given)

>  <OUTCOME MEASURE>
inhibition

>  <RESULT>
-6.66% (inactive)

$$$$
>  <COMPOUND>
CC1=NN(C(=O)c2ccc(Br)cc2)C(O)(c2ccccc2)C1 (stereo not given)

>  <OUTCOME MEASURE>
inhibition

>  <RESULT>
82.1% (active)

$$$$
>  <COMPOUND>
C=CCC[C@H](Cc1ccc(F)cc1)C(=O)OC[C@H](C)NC(=O)[C@H](CC=C)CC(=O)N(CCO)Cc1ccccc1

>  <OUTCOME MEASURE>
inhibition

>  <RESULT>
2.24% (inactive)

$$$$
>  <COMPOUND>
CC1(NC(=O)CCS(=O)(=O)c2ccc(Cl)cc2)CCS(=O)(=O)C1 (stereo not given)

>  <OUTCOME MEASURE>
inhibition

>  <RESULT>
-4.01% (inactive)

$$$$
>  <COMPOUND>
Cc1[nH]n(-c2ccc([N+](=O)[O-])cc2)c(=O)c1C=NCCN1CCN(C(=O)c2ccccc2F)CC1

>  <OUTCOME MEASURE>
inhibition

>  <RESULT>
-0.584% (inactive)

$$$$
>  <COMPOUND>
Cc1cccc(NC(=O)CSC(N)=O)c1C

>  <OUTCOME MEASURE>
inhibition

>  <RESULT>
98.7% (active)

$$$$
>  <COMPOUND>
Cc1ccc(-n2[nH]c(C)c(/C=N/NC(=O)c3cccc([N+](=O)[O-])c3)c2=O)cc1C

>  <OUTCOME MEASURE>
inhibition

>  <RESULT>
97% (active)

$$$$
>  <COMPOUND>
c1ccc2c(CCN3CCNC[C@H]3Cc3cccc4ccccc34)cccc2c1

>  <OUTCOME MEASURE>
inhibition

>  <RESULT>
-14.6% (inactive)

$$$$
>  <COMPOUND>
Cc1cccc(NC(=O)COC(=O)CCc2ccccc2)c1C

>  <OUTCOME MEASURE>
inhibition

>  <RESULT>
-8.62% (inactive)

$$$$
>  <COMPOUND>
CCN1C(=O)[C@@H]2[C@@H](c3ccc(-c4ccccc4)cc3)N3CCCC[C@@]3(C(=O)OC)[C@@H]2C1=O

>  <OUTCOME MEASURE>
inhibition

>  <RESULT>
-1.67% (inactive)

$$$$
>  <COMPOUND>
Cc1ccc(-c2csc(NCCc3nc4cc(Cl)c(Cl)cc4n3CCOCCO)n2)cc1

>  <OUTCOME MEASURE>
inhibition

>  <RESULT>
-6.99% (inactive)

$$$$
>  <COMPOUND>
COc1ccccc1C(=O)NCCC(=O)NN1C(=O)NC2(CCCCC2)C1=O

>  <OUTCOME MEASURE>
inhibition

>  <RESULT>
-0.581% (inactive)

$$$$
>  <COMPOUND>
O=C(OCC(=O)N1CCN(C(=O)c2ccco2)CC1)c1c(Cl)cccc1Cl

>  <OUTCOME MEASURE>
inhibition

>  <RESULT>
-7.05% (inactive)

$$$$
>  <COMPOUND>
CC1(C)OC(=O)C(=CSc2ccc(C(C)(C)C)cc2)C(=O)O1

>  <OUTCOME MEASURE>
inhibition

>  <RESULT>
97.7% (active)

$$$$
